Sourced from patent US20250250357A1

target: T1, human MSLN-FL-his protein (human, UniProt Q13421 296-580); test: ELISA on coated antigen, antibody 0.1 nM
T1 construct: Made in HEK293E cells, purified on nickel column; it is put last here; also called human MSLN full-length protein; hMSLN-FL-his; not shown: His tag
T1 sequence (Q13421 other isoform, or with tags, fused parts or gaps): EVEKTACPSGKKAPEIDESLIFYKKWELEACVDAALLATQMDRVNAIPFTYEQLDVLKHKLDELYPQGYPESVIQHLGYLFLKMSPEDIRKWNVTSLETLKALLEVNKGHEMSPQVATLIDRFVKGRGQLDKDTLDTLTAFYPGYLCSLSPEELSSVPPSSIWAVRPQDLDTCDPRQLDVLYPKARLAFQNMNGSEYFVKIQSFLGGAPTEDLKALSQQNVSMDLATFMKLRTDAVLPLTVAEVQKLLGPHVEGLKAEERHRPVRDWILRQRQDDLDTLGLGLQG
measurement_type: OD450 (OD)

>>> measured_number("S009-F8-32.3 (antibody, human IgG1, kappa, V domains shown, Human-murine chimeric antibody, human IgG1 heavy and kappa light constant regions) VH: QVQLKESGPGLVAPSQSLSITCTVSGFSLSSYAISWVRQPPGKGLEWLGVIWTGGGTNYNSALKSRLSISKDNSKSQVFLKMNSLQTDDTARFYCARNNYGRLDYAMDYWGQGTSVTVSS VL: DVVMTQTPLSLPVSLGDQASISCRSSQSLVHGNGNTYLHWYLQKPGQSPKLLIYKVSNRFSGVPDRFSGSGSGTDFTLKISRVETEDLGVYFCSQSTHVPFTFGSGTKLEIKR")
1.63
